Tested on: P. aeruginosa strain WC-453
method: Time-kill assay in HEPES or CAA with 25% human serum (Tables 7, 8)
Assay type: cell-based, Pseudomonas aeruginosa
conditionInfo: CAA + 25% human serum; lysin 10 μg/ml; 1 hr; WC-453
parameter: CAA/HuS (Log10 CFU/mL), 1 hr

| molecule | parameter | recordedMeasurement |
| --- | --- | --- |
| GN93: lysin-AMP construct: cationic peptide (SEQ ID NO: 120) and linker N-terminal to GN14 lysin (SEQ ID NO: 62) (protein) MKFFKFFKFFKAGAGAGAGAGAGAGAGASNNELPWVAEARKYIGLREDTSKTSHNPKLLAMLDRMGEFSNESRAWWHDDETPWCGLFVGYCLGVAGRYVVREWYRARAWEAPQLTKLDRPAYGALVTFTRSGGGHVGFIVGKDARGNLMVLGGNQSNAVSIAPFAVSRVTGYFWPSFWRNKTAVKSVPFEERYSLPLLKSNGELSTNEA | CAA/HuS (Log10 CFU/mL), 1 hr | 6.6 |
